- Tgt: NLRP3 inflammasome (Homo sapiens, UniProt Q96P20)
- Construct: endogenous in cells
- Sequence (Q96P20 whole entry): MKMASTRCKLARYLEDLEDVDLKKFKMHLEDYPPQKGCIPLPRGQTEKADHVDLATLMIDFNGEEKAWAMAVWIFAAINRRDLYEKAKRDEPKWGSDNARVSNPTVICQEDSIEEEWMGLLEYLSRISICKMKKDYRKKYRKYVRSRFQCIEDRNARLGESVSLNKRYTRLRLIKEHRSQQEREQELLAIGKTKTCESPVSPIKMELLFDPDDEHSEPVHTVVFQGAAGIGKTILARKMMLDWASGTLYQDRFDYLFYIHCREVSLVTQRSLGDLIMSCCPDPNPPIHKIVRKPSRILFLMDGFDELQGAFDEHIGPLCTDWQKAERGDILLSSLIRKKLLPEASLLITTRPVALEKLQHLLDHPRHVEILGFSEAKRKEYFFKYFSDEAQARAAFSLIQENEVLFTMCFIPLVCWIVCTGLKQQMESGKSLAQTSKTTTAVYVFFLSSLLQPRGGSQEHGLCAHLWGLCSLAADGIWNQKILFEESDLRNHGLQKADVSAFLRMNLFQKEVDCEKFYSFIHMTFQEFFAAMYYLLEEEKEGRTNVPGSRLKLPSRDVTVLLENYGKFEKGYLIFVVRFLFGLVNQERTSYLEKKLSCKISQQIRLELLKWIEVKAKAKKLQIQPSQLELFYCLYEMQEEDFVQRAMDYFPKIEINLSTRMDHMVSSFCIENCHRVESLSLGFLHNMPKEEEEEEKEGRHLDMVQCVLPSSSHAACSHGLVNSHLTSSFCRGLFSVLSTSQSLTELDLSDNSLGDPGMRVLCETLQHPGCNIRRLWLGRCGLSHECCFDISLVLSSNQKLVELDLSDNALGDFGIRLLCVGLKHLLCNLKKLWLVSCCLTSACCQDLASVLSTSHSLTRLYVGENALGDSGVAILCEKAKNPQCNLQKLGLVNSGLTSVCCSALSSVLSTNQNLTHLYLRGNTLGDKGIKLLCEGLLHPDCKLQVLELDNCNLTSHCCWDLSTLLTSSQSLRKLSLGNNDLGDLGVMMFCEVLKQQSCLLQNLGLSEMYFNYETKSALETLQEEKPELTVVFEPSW
- Test Method Notes: IL-1β secretion assay (NLRP3 IC50) in LPS-primed, nigericin-activated THP-1 cells, HTRF
- Protocol Conditions: monocytic THP-1 cells; LPS 10 ng/mL 3 h priming, then compound + nigericin 10 μM 2 h; relative IC50, 10 concentrations, geometric mean
This listing pairs compounds with measured IC50.
All answers are understood in nM, so give the number only.

Examples from the recorded data:
| Compound | Reported |
| --- | --- |
| Cc1cc(Cl)cc(O)c1-c1ccc(N2CCO[C@@H](CNC(=O)C(C)C)C2)nn1 | 65 |
| Cc1cc(C)c(-c2ccc(N3CCC(CO)C3=O)nn2)c(O)c1 (centres unmarked) | 149 |
| NC[C@H]1CCN(c2ccc(-c3c(O)cc(Cl)cc3Cl)nn2)C1 | 109 |

Query: Quick check: IC50 of Cc1cc(C(F)(F)F)cc(O)c1-c1ccc(N2CCC(CO)CC2=O)nn1 (single isomer, unassigned) ?
Response: 84

Query: Input Cc1cc(C(F)(F)F)cc(O)c1-c1ccc(N2CCO[C@H](CF)C2)nn1 (single isomer, unassigned)
Response: 87

Query: Input `Cc1cc(C(F)(F)F)cc(O)c1-c1nnc(N2CCO[C@H](CO)C2)cc1C(F)F`
Response: 81

Query: Input `Cc1cc(C)c(-c2ccc(N3CCO[C@@H](CF)C3)nn2)c(O)c1`
Response: 108

Query: Input `[O-][S+]1CCN(c2ccc(-c3c(O)cc(Cl)cc3Cl)nn2)CC1`
Response: 93
